# system: T1, eukaryotically produced human IL-6 (human, UniProt P05231 30-212)
# T1 construct: Immobilised on the Biacore chip; also called Euk IL-6; EUK IL-6 (3-1)
# experimental-details: SPR (Biacore), periplasmic Fab
As shown below, each of these binders has a reported kon value.
// return numeric value only (unit: M⁻¹ s⁻¹, not printed)

binder="55E10 (Fab, V domains shown, Periplasmic Fab; Suffix 'g1' not explained; also called 55E10g1) VH: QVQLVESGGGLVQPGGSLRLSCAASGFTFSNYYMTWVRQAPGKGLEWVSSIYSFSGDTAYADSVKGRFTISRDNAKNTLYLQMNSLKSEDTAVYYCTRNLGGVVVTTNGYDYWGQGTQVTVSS VL: DIQMTQSPSSLPTSLGDSVTITCQASQSISDELSWYQQKPGQTPKLLIYGASKLQTGVPSRFSGSGSGTSFTLTISGLEAEDLATYYCLQGYSWPFMFGQGTKVELK" result_number=146000
binder="55C11 (Fab, V domains shown, Periplasmic Fab; Suffix 'f' not explained; also called 55C11f) VH: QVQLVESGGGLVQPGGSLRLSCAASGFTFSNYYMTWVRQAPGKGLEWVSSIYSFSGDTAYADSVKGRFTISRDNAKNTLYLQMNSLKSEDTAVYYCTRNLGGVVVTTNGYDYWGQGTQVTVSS VL: DIQLTQSPSSLSASLGDSVTITCQASQSISDELSWYQQKPGQTPKLLIYGASKLQTGVPSRFSGSGSGTSFTLTISGLEAEDLATYYCLQGYRWPFMFGQGTKVELK" result_number=201000
binder="55A11 (Fab, V domains shown, Periplasmic Fab; Suffix 'd' of the label not explained; also called 55A11d) VH: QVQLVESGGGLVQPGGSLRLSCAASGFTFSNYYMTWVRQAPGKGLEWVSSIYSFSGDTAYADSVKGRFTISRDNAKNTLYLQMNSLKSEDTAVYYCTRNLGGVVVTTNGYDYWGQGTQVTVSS VL: DIQMTQSPSSLPTSLGDSVTITCQASQSISDELSWYQQKPGQTPKLLIYGASRLQTGVPSRFSGRGSGTSFTLTISGLEAEDLATYYCLQGYSWPFMFGQGTKVELK" result_number=101000

INPUT: Entry 48H1 (Fab, V domains shown, Periplasmic Fab; Suffix 'g2, R4' not explained; also called 48H1g2, R4) VH: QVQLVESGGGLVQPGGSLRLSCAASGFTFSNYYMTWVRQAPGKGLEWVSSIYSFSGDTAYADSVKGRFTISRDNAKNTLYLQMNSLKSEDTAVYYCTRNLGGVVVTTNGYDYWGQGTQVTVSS VL: DVVMTQSPSSLPTSLGDSVTITCQASQSISDELSWYQQKPGQTPKLLIYGASKLQTGVPSRFSGSGSGTSFTLTISGLEAEDLATYYCLQGYSWPFMFGQGTKVELK has what kon?
OUTPUT: 106000
